- experimentalSystem: T1, human FSTL1 (construct not stated) (human, UniProt Q12841 21-308)
- T1 construct: also called human FSTL1 antigen; FSTL1 (R&D Systems, Inc. Cat#1694-FN-050)
- T1 sequence: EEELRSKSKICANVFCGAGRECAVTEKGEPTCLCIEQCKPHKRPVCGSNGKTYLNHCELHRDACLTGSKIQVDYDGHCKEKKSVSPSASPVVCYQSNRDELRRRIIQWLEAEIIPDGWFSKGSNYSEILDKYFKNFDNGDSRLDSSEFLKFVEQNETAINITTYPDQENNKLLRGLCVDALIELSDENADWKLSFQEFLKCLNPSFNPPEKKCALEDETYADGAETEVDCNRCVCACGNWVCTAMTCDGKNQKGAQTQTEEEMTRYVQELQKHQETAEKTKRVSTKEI
- assayProcedure: SPR (Biacore T-200), captured antibody, human FSTL1 10 µg/ml
measuredQuantity: Binding amount (RU)
Numbers only here, please. The scale is RU.

binder: anti-FSTL1 antibody clone #5-3 (chicken-mouse chimeric antibody) (antibody, mouse IgG1, kappa, V domains shown) VH: AVTLDESGGGLQTPGGALSLVCKGSGFSFSSFNMFWVRQAPGKGLEWVAGIGKDGVPKYGAAVDGRATISKDNGQSTMRLQLNNLRAEDTGTYFCAKAAGGCSYDWCGIYAGDIDTWGHGTEVIVSS VL: ASTQPSSVSANPGETVKITCSGGSGYYYGWYQQKSPGSVPVTVIYNNNNRPSDIPSRFSGSKSGSTGTLTITGVRAEDEAVYYCGGYDNSGTGIFGAGTTLTVLG
quantityUnit: RU
Binding amount (RU): 11
//
binder: anti-FSTL1 antibody clone #5-8 (chicken-mouse chimeric antibody) (antibody, mouse IgG1, kappa, V domains shown) VH: AVTLDESGGGLQTPGGGLSLVCKGSGFTFSSFNMFWVRQAPGKGLEWVAGIGKDGVPKYGTAVDGRATISKDNGQSTMRLQLNNLRAEDTGTYFCAKAAGGCSYDWCGIYTGDIDTWGHGTEVIVSS VL: ASTQPSSVSANPGEAVKITCSGGSGSYYGWYQQKSPGSAPVTVIYNNNQRPSDIPSRFSGSKSGSTATLTITGVQAEDEAVYFCGGYDSSTGHGGIFGAGTTLTVLG
quantityUnit: RU
Binding amount (RU): 6.7

Now examine the next entry.
Report Binding amount (RU) for anti-FSTL1 antibody clone #8-8 (chicken-mouse chimeric antibody) (antibody, mouse IgG1, kappa, V domains shown) VH: AVTLDESGGGLQTPGGALSLVCKGSGFTFSSFNMFWVRQAPGKGLEWVAGIGKDGVPKYGAAVDGRATISKDNGQSTMRLQLNNLRAEDTGTYYCAKAAGGCSYGWCGAYTGDIDTWGHGTEVIVSS VL: ASTQPSSVSANPGEAVKITCSGGSGSYYGWYQQKSPGSAPVTVIYNNNQRPSDIPSRFSGSKSGSTATLTITGVQVEDEAVYFCGGYDSSTGHGGIFGAGTTLTVLG please.
8
